Assay: Stability in human serum (HPLC)
Assay type: in vitro ADME
Design: dose or concentration left out as unconfirmed
Settings: 37 °C, after 48 h of incubation, read-out: initial concentration of peptide remaining unchanged (HPLC)
Bridge positions count the residues as written; N and C are the ends. Peptide text beside a SMILES is read from it.
endpoint: remaining at 48 h

Quick check: remaining at 48 h of CC[C@H](C)[C@@H]1NC(=O)[C@@H]2CCCN2C(=O)[C@@H]2CCCN2C(=O)[C@H]([C@@H](C)CC)NC(=O)[C@H](CO)NC(=O)[C@H](CCCCN)NC(=O)[C@H](CCCCN)NC(=O)[C@@H]2CSSC[C@H](NC1=O)C(=O)N[C@@H](Cc1ccccc1)C(=O)N[C@@H](CCCCN)C(=O)N[C@@H](CCCNC(=N)N)C(=O)N[C@@H](CCCNC(=N)N)C(=O)N2 [inhibitor 5] (cyclo(KRRCKKSIPPICF); disulfide 4-12) ?
~59%

Quick check: remaining at 48 h of CC[C@H](C)[C@@H]1NC(=O)[C@@H]2CCCN2C(=O)[C@@H]2CCCN2C(=O)[C@H]([C@@H](C)CC)NC(=O)[C@H](CO)NC(=O)[C@H](CCCCN)NC(=O)[C@H](CCCCN)NC(=O)[C@@H]2CSSC[C@H](NC1=O)C(=O)N[C@@H](Cc1ccccc1)C(=O)N[C@@H](CCCNC(=N)N)C(=O)N[C@@H](CCCNC(=N)N)C(=O)N[C@@H](CCCNC(=N)N)C(=O)N2 [inhibitor 6] (cyclo(RRRCKKSIPPICF); disulfide 4-12) ?
~28%
